FYI, the data here is from patent US9624239B2.

- tested system: histidine tagged recombinant human full-length Bruton Agammaglobulinemia Tyrosine Kinase (Btk) (Homo sapiens)
- Construct: recombinant human full-length Bruton Agammaglobulinemia Tyrosine Kinase (Btk); histidine tag
- assay name: Btk kinase inhibition assay (fluorescence polarization, KinEASE FP Fluorescein Green)
- Type: biochemical
- recorded conditions: 10 μM ATP, 250 μM substrate, 60 minutes, room temperature; Ki from IC50 by Cheng-Prusoff; read-out: ki50 (nM), Inhibition of Btk
observable: Ki

CC1OCc2c1c1ncnc(N)c1n2-c1ccc(Oc2cccc(OCCOc3ccc(Cl)cc3)c2)cc1 (centres unmarked) ... < 100 nM

Ki in this record for "Nc1ncnc2c3c(n(-c4ccc(Oc5ccccc5)cc4)c12)CN(Cc1ccccc1)C3" : > 1000 nM

* * *

- tested system: histidine tagged recombinant human full-length Bruton Agammaglobulinemia Tyrosine Kinase (Btk) (Homo sapiens, UniProt Q06187)
- Construct: recombinant human full-length Bruton Agammaglobulinemia Tyrosine Kinase (Btk); histidine tag
- Sequence (Q06187 whole entry): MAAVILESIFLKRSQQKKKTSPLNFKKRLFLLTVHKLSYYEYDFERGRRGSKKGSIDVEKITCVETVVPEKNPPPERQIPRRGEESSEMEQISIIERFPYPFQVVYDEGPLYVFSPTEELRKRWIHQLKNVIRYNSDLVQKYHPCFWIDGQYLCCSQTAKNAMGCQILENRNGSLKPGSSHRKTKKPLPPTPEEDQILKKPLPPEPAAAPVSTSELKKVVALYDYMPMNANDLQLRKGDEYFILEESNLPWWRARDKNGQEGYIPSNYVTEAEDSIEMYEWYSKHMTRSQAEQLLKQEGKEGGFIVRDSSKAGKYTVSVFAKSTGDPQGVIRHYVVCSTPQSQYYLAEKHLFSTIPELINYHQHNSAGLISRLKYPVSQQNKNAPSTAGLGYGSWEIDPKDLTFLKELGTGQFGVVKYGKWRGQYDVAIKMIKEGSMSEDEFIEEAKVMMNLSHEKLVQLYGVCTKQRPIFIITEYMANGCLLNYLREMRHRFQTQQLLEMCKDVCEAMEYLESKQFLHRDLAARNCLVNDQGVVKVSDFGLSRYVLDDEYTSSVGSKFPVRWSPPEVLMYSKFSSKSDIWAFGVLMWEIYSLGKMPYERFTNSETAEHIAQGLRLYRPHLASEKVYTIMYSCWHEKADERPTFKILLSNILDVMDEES
- assay name: Btk kinase inhibition assay (fluorescence polarization, KinEASE FP Fluorescein Green)
- Format: biochemical
- recorded conditions: 10 μM ATP, 250 μM substrate, 60 minutes, room temperature; Ki from IC50 by Cheng-Prusoff; read-out: ki50 (nM), Inhibition of Btk
observable: Ki

CC1OCc2c1c1ncnc(N)c1n2-c1ccc(Oc2cccc(NC(=O)c3ccccc3F)c2)cc1 (stereo not shown) ... < 100 nM
CC1OCc2c1c1ncnc(N)c1n2-c1ccc(Oc2cccc(OCc3cccc(Cl)c3)c2)cc1 (stereo not shown) ... < 100 nM
CC1OCc2c1c1ncnc(N)c1n2-c1ccc(Oc2cccc(NS(=O)(=O)Cc3ccccc3)c2)cc1 (stereo not shown) ... < 100 nM

Then there is this compound:
Ki in this record for COc1cccc(Oc2ccc(-n3c4c(c5ncnc(N)c53)C(C)OC4)cc2)c1 (stereo not shown) : < 100 nM

* * *

- tested system: histidine tagged recombinant Human Lymphocyte-Specific Protein Tyrosine Kinase (Lck) (Homo sapiens, UniProt P06239)
- Construct: histidine tag
- Sequence (P06239 whole entry): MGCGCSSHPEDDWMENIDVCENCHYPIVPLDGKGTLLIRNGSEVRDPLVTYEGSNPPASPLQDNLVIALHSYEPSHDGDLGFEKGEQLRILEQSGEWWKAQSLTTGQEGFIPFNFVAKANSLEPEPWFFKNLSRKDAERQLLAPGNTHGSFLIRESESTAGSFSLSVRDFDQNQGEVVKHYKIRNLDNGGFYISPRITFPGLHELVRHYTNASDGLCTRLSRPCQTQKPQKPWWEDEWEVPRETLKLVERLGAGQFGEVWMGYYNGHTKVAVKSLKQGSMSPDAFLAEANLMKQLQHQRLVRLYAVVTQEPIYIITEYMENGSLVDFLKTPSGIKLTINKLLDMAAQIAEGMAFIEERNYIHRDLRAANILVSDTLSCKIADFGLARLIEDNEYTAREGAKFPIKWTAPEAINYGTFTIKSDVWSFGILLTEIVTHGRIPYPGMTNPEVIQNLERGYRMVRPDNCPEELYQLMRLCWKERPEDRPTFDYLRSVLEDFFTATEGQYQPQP
- assay name: Lck kinase inhibition assay (fluorescence polarization, KinEASE FP Fluorescein Green)
- Type: biochemical
- recorded conditions: 10 μM ATP, 250 μM substrate, 60 minutes, room temperature; Ki from IC50 by Cheng-Prusoff
- Experimental: Kinase Binding Btk and Lck Kinase Inhibition Assay Fluorescence polarization-based kinase assays were performed in 384 well-plate format using histidine tagged recombinant human full-length Bruton Agammaglobulinemia Tyrosine Kinase (Btk) or histidine tagged recombinant Human Lymphocyte-Specific Protein Tyrosine Kinase (Lck) and a modified protocol of the KinEASE™ FP Fluorescein Green Assay supplied from Millipore. […]
observable: Ki

Nc1ncnc2c3c(n(-c4ccc(Oc5ccccc5)cc4)c12)CCC3 [Compound 1] ... < 100 nM
COc1cccc(Oc2ccc(-n3c4c(c5ncnc(N)c53)C(C)OC4)cc2)c1 (stereo not drawn) [Compound 25] ... < 100 nM
Nc1ncnc2c3c(n(-c4ccc(Oc5cccc(O)c5)cc4)c12)CCC3 [Compound 61] ... < 100 nM
CC1OCc2c1c1ncnc(N)c1n2-c1ccc(Oc2ccccc2)c(Cl)c1 (stereo not drawn) [Compound 39] ... < 100 nM
CC1OCc2c1c1ncnc(N)c1n2-c1ccc(Oc2ccccc2F)cc1 (stereo not drawn) [Compound 34] ... < 100 nM

Ki in this record for CC1OCc2c1c1ncnc(N)c1n2-c1ccc(Oc2cccc(OCC#N)c2)cc1 (stereo not drawn) [Compound 46] : < 100 nM

Ki in this record for CC1OCc2c1c1ncnc(N)c1n2-c1ccc(Oc2ccccc2Cl)cc1 (stereo not drawn) [Compound 33] : < 100 nM

Ki in this record for CC1OCc2c1c1ncnc(N)c1n2-c1ccc(Oc2cccc(OCC3CCCCC3)c2)cc1 (stereo not drawn) [Compound 56] : < 100 nM

Ki in this record for Nc1ncnc2c3c(n(-c4ccc(Oc5ccccc5)cc4)c12)CCNC3 [Compound 8] : < 1000 nM

Ki in this record for Nc1ncnc2c3c(n(-c4ccc(Oc5ccccc5)cc4)c12)CN(C(=O)c1ccccc1)C3 [Compound 18] : < 1000 nM

Ki in this record for CC1OCc2c1c1ncnc(N)c1n2-c1ccc(Oc2cccc([N+](=O)[O-])c2)cc1 (stereo not drawn) [Compound 45] : < 1000 nM

Ki in this record for CCC1OCc2c1c1ncnc(N)c1n2-c1ccc(Oc2ccccc2)cc1 (stereo not drawn) [Compound 24] : < 100 nM

Ki in this record for Nc1ncnc2c3c(n(-c4ccc(Oc5ccccc5)cc4)c12)CCCC3 [Compound 13] : < 1000 nM

Ki in this record for Nc1ncnc2c3c(n(-c4ccc(Oc5ccc(Br)cc5)cc4)c12)CCC3 [Compound 3] : < 1000 nM

Ki in this record for CCN1Cc2c(n(-c3ccc(Oc4ccccc4)cc3)c3c(N)ncnc23)C1 [Compound 14] : < 1000 nM

Ki in this record for CC1OCc2c1c1ncnc(N)c1n2-c1ccc(Oc2cccc(OCc3ccc(F)cc3)c2)cc1 (stereo not drawn) [Compound 49] : < 100 nM

Ki in this record for Nc1ncnc2c3c(n(-c4ccc(Oc5ccccc5)cc4)c12)COC3CCCOc1ccccc1 (stereo not drawn) [Compound 36] : < 1000 nM

Ki in this record for CC1OCc2c1c1ncnc(N)c1n2-c1ccc(Oc2ccccc2C#N)cc1 (stereo not drawn) [Compound 58] : < 100 nM

* * *

- tested system: histidine tagged recombinant human full-length Bruton Agammaglobulinemia Tyrosine Kinase (Btk) (Homo sapiens, UniProt Q06187)
- Construct: recombinant human full-length Bruton Agammaglobulinemia Tyrosine Kinase (Btk); histidine tag
- assay name: Btk kinase inhibition assay (fluorescence polarization, KinEASE FP Fluorescein Green)
- Format: biochemical
- recorded conditions: 10 μM ATP, 250 μM substrate, 60 minutes, room temperature; Ki from IC50 by Cheng-Prusoff; read-out: ki50 (nM), Inhibition of Btk
The following compounds are shown together with reported Ki values.

CC1OCc2c1c1ncnc(N)c1n2-c1ccc(Oc2cccc(OCc3ccccc3C(F)(F)F)c2)cc1 (stereo not drawn) ... < 100 nM
Cc1ccc(Oc2ccc(-n3c4c(c5ncnc(N)c53)C(C)OC4)cc2)cc1 (stereo not drawn) ... < 1000 nM
CC1OCc2c1c1ncnc(N)c1n2-c1ccc(Oc2cccc(OCC3CC3)c2)cc1 (stereo not drawn) ... < 100 nM
COc1cc(-n2c3c(c4ncnc(N)c42)CCC3)ccc1Oc1ccccc1 ... < 1000 nM
CC1OCc2c1c1ncnc(N)c1n2-c1ccc(Oc2cccnc2)cc1 (stereo not drawn) ... > 1000 nM

Then there is this compound:
Ki in this record for CC1OCc2c1c1ncnc(N)c1n2-c1ccc(Oc2cccc(NC(=O)c3ccc(Cl)cc3)c2)cc1 (stereo not drawn) : < 100 nM

* * *

- tested system: histidine tagged recombinant human full-length Bruton Agammaglobulinemia Tyrosine Kinase (Btk) (Homo sapiens, UniProt Q06187)
- Construct: recombinant human full-length Bruton Agammaglobulinemia Tyrosine Kinase (Btk); histidine tag
- assay name: Btk kinase inhibition assay (fluorescence polarization, KinEASE FP Fluorescein Green)
- Type: biochemical
- recorded conditions: 10 μM ATP, 250 μM substrate, 60 minutes, room temperature; Ki from IC50 by Cheng-Prusoff; read-out: ki50 (nM), Inhibition of Btk
- Procedure: Kinase Binding Btk and Lck Kinase Inhibition Assay Fluorescence polarization-based kinase assays were performed in 384 well-plate format using histidine tagged recombinant human full-length Bruton Agammaglobulinemia Tyrosine Kinase (Btk) or histidine tagged recombinant Human Lymphocyte-Specific Protein Tyrosine Kinase (Lck) and a modified protocol of the KinEASE™ FP Fluorescein Green Assay supplied from Millipore. […]
observable: Ki

Ki in this record for "NCC(=O)N1CCc2c(c3ncnc(N)c3n2-c2ccc(Oc3ccccc3)cc2)C1" : > 1000 nM

Ki in this record for CC1OCc2c1c1ncnc(N)c1n2-c1ccc(Oc2cccc(OCC(N)=O)c2)cc1 (stereo not shown) : > 1000 nM

Ki in this record for COc1ccccc1Oc1ccc(-n2c3c(c4ncnc(N)c42)C(C)OC3)cc1 (stereo not shown) : < 1000 nM

Ki in this record for CC1OCc2c1c1ncnc(N)c1n2-c1ccc(Oc2ccc(F)cc2)cc1 (stereo not shown) : > 1000 nM

* * *

- tested system: histidine tagged recombinant human full-length Bruton Agammaglobulinemia Tyrosine Kinase (Btk) (Homo sapiens, UniProt Q06187)
- Construct: recombinant human full-length Bruton Agammaglobulinemia Tyrosine Kinase (Btk); histidine tag
- assay name: Btk kinase inhibition assay (fluorescence polarization, KinEASE FP Fluorescein Green)
- Format: biochemical
- recorded conditions: 10 μM ATP, 250 μM substrate, 60 minutes, room temperature; Ki from IC50 by Cheng-Prusoff; read-out: ki50 (nM), Inhibition of Btk
observable: Ki

Some molecules with recorded Ki:
CC1OCc2c1c1ncnc(N)c1n2-c1ccc(Oc2ccccc2C#N)cc1 (stereo not drawn) ... < 1000 nM
N#Cc1ccccc1COc1cccc(Oc2ccc(-n3c4c(c5ncnc(N)c53)CCC4)cc2)c1 ... < 100 nM

Ki in this record for CC1OCc2c1c1ncnc(N)c1n2-c1ccc(Oc2cccc(NC(=O)c3ccc(F)cc3)c2)cc1 (stereo not drawn) : < 100 nM
